measure: pKi
Give only the number. pKi is defined as minus log10 of concentration in molar units.

Under 5-hydroxytryptamine receptor 7 (Homo sapiens), report pKi for COc1cc(CC(C)N)c(OC)cc1C (stereo not given)
5.80

Provide pKi, recorded with 5-hydroxytryptamine receptor 7 (Homo sapiens), of COc1ccc2[nH]cc(CCN(C)C(C)C)c2c1
Sequence (P34969 whole entry): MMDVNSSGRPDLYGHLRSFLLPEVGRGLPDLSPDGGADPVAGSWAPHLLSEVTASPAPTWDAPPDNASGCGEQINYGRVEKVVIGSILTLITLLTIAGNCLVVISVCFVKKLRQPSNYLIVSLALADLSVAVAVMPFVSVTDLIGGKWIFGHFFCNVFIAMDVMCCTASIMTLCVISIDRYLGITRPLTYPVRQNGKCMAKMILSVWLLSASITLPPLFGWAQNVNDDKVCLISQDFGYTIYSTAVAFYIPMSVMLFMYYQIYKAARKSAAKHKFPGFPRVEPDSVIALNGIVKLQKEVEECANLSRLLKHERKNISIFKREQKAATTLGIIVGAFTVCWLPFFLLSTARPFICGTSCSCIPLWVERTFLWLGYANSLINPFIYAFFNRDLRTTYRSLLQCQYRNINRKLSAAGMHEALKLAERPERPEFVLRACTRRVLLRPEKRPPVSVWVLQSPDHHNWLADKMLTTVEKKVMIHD
7.70

Write pKi of CCSc1cc(OC)c(CC(C)N)cc1OC (stereo not given) ; system used: 5-hydroxytryptamine receptor 7 (Homo sapiens)
5.88

GET pKi where system = 5-hydroxytryptamine receptor 7 (Homo sapiens) and item = COc1cc(CC(C)N)c(OC)cc1Br (stereo not given)
6.30

Lab note: 5-hydroxytryptamine receptor 7 (Homo sapiens) assay, enter pKi for CN(C)CCc1c[nH]c2ccccc12 here
7.06

System 5-hydroxytryptamine receptor 7 (Homo sapiens). Read-out pKi. Item COc1cc(CC(C)N)cc(OC)c1OC (stereo not given) . Report value.
6.13

Write down measured pKi (5-hydroxytryptamine receptor 7 (Homo sapiens)) for this molecule. CCc1cc(OC)c(CC(C)N)cc1OC (stereo not given)
5.91

Specify pKi for COc1ccc2[nH]cc(CCN(C(C)C)C(C)C)c2c1 , system 5-hydroxytryptamine receptor 7 (Homo sapiens).
5.91

State pKi (5-hydroxytryptamine receptor 7 (Homo sapiens)) of CC(C)N(CCc1c[nH]c2ccccc12)C(C)C .
5.47

Provide the reported pKi (system: 5-hydroxytryptamine receptor 7 (Homo sapiens)) for COc1cc(CCN)c(OC)cc1Br
6.68

Specify the recorded pKi for CCSc1cc(OC)c(CC(N)CC)cc1OC (stereo not given) , system: 5-hydroxytryptamine receptor 7 (Homo sapiens).
5.42

Give 5-hydroxytryptamine receptor 7 (Homo sapiens) pKi for the following molecule: CC(N)Cc1ccc2c(c1)OCO2 (stereo not given)
5.45

Specify the recorded pKi for CCc1cc(OC)c(CCN)cc1OC , system: 5-hydroxytryptamine receptor 7 (Homo sapiens).
6.37

----------
- experimental target: UniProtKB Q62645
- measurement description: Ray2010 Assay 68
measure: Ki (µM)
Please give a number only; it is taken to be in µM.

Quick one: give measured Ki for CC[C@H]1C[C@@H]2C[C@H]3c4[nH]c5ccc(OC)cc5c4CCN(C2)[C@@H]13
3.9

----------
- experimental target: 5-hydroxytryptamine receptor 6 (Homo sapiens, UniProt P50406)
- Sequence (P50406 whole entry): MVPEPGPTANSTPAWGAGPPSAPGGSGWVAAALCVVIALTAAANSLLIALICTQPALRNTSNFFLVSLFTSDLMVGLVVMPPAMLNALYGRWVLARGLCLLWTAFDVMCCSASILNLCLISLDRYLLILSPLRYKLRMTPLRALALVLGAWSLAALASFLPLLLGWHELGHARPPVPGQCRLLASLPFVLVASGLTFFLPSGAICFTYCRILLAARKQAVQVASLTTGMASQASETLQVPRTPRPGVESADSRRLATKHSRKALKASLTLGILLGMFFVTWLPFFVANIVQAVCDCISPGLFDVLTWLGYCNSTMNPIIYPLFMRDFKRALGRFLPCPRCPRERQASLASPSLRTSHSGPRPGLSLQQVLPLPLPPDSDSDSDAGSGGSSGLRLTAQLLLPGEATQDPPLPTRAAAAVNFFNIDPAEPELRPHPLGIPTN
# note: boundary value 300 nM maps to Criterion not met; Ki below it maps to Criterion met

I wonder whether COc1cc(CCN)c(OC)cc1Br has Ki below 300 nM. Can you tell?
Criterion not met

Answer whether the molecule NCCc1c2c(c(Br)c3c1OCC3)OCC2 has Ki strictly less than 300 nM
Criterion met

Regarding CNC(C)Cc1ccc2c(c1)OCO2 (stereo not drawn) [mdma] , kindly confirm whether its Ki is beneath 300 nM.
Criterion not met

Lab note: Ki threshold 300 nM. Does this molecule come in strictly under it? COc1cc(CCN)cc(OC)c1OC [3,4,5-trimethoxyphenylethylamine]
Criterion not met

Check if Ki falls below 300 nM for CC(C)N(CCc1c[nH]c2ccccc12)C(C)C [dipt] .
Criterion not met

Determine if COc1ccc2[nH]cc(CCN(C)C(C)C)c2c1 [5-meo-mipt] shows Ki strictly lower than 300 nM.
Criterion met

Hi there! Is Ki for COc1cc(CC(C)N)c(OC)cc1Br (stereo not drawn) below 300 nM, do you know?
Criterion not met

Take the molecule CCc1cc(OC)c(CC(C)N)cc1OC (stereo not drawn) and say whether its Ki is less than 300 nM.
Criterion not met

A record lists C[C@@H]1C[C@@H](C)N1C(=O)C1C=C2c3cccc4[nH]cc(c34)C[C@H]2N(C)C1 (stereo partly drawn) [rr-2b] . Is its Ki below 300 nM?
Criterion met

Confirm or reject: Ki of CN(C)CCc1c[nH]c2ccccc12 [2-(1H-indol-3-yl)-N,N-dimethylethanamine] lies strictly below 300 nM
Criterion not met

Quick check: does CC(N)Cc1ccc2c(c1)OCO2 (stereo not drawn) have Ki under 300 nM?
Criterion not met

Please state whether Ki is below 300 nM for CCSc1cc(OC)c(CC(N)CC)cc1OC (stereo not drawn)
Criterion not met

Field: below-cutoff. Rule: recorded Ki strictly less than 300 nM. Subject: CCc1cc(OC)c(CCN)cc1OC
Criterion not met

----------
pKi: −log10 of the molar value.
measure: pKi

State pKi on UniProt P21917. Entry: CNC(C)Cc1ccc2c(c1)OCO2 (stereo not given) [mdma]
Sequence (P21917 whole entry): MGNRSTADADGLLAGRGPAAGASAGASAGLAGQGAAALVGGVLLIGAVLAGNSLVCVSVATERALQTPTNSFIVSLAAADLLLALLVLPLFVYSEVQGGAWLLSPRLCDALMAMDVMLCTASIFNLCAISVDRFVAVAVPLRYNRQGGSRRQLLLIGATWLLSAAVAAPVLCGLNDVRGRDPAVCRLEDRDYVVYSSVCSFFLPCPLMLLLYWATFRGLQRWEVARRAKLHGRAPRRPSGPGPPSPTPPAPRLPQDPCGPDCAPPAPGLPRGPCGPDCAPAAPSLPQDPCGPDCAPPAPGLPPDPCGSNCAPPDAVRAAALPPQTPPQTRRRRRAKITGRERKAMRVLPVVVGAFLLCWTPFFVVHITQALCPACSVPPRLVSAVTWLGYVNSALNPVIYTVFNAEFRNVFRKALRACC
< 5.00

Specify pKi for CCc1[nH]c2ccc(OC)cc2c1CCN(C)C [2-ethyl-5-methoxy-N,N-dimethyltryptamine] , system UniProt P21917.
< 5.00

Identify measured pKi obtained with UniProt P21917 for CN(C)CCc1c[nH]c2ccccc12 [2-(1H-indol-3-yl)-N,N-dimethylethanamine] .
< 5.00

Would you please give the reported pKi of COc1cc(CC(C)N)c(OC)cc1Br (stereo not given) with UniProt P21917?
< 5.00

Look up UniProt P21917 data: pKi of CCN(CC)C(=O)[C@@H]1C=C2c3cccc4[nH]cc(c34)C[C@H]2N(C)C1 [[N-methyl-3H]LSD] , then report it.
6.80

----------
- experimental target: Sigma non-opioid intracellular receptor 1 (Homo sapiens)
- Sequence (Q99720 whole entry): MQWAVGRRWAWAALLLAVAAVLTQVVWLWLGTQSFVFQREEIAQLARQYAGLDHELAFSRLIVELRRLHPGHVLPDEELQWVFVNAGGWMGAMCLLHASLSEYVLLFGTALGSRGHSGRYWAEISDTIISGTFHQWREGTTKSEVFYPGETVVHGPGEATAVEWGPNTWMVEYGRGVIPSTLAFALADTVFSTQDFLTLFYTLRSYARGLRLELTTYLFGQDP
- measurement description: Ray2010 Assay 74
Hi there, I'd appreciate the recorded Ki for every entry that follows.
The answer is to be given in µM; state only the numeric part.

Lab note: record Ki of CC[C@H]1C[C@@H]2C[C@H]3c4[nH]c5ccc(OC)cc5c4CCN(C2)[C@@H]13 tested on Sigma non-opioid intracellular receptor 1 (Homo sapiens).
5.84

Enter recorded Ki with Sigma non-opioid intracellular receptor 1 (Homo sapiens) for CC(C)N(CCc1c[nH]c2ccccc12)C(C)C here.
1.8

Please report the measured Ki for CN(C)CCc1c[nH]c2ccccc12 tested on Sigma non-opioid intracellular receptor 1 (Homo sapiens).
5.21

# return Ki for COc1cc(CC(C)N)cc(OC)c1OC (configuration not stated) , test system: Sigma non-opioid intracellular receptor 1 (Homo sapiens)
0.536

# lookup: Sigma non-opioid intracellular receptor 1 (Homo sapiens) Ki, key = CCSc1cc(OC)c(CC(C)N)cc1OC (configuration not stated)
0.239

State Ki on Sigma non-opioid intracellular receptor 1 (Homo sapiens). Entry: COc1cc(CC(C)N)c(OC)cc1Br (configuration not stated)
2.19

Enter measured Ki, system Sigma non-opioid intracellular receptor 1 (Homo sapiens), for the compound shown: CN(C)CCc1c[nH]c2cc(F)ccc12
6.89

----------
pKi: −log10 of the molar value.
measure: pKi

Report pKi under test system Metabotropic glutamate receptor 6 (Homo sapiens) for C[C@@H]1C[C@H](C)N1C(=O)C1C=C2c3cccc4[nH]cc(c34)C[C@H]2N(C)C1 (stereo partly drawn) [cis-2a] .
< 5.00

Under Metabotropic glutamate receptor 6 (Homo sapiens): report pKi of CCN(CC)C(=O)[C@@H]1C=C2c3cccc4[nH]cc(c34)C[C@H]2N(C)C1 [[N-methyl-3H]LSD] .
< 5.00

Report measured pKi on Metabotropic glutamate receptor 6 (Homo sapiens); entry: C[C@@H]1C[C@@H](C)N1C(=O)C1C=C2c3cccc4[nH]cc(c34)C[C@H]2N(C)C1 (stereo partly drawn)
Sequence (O15303 whole entry): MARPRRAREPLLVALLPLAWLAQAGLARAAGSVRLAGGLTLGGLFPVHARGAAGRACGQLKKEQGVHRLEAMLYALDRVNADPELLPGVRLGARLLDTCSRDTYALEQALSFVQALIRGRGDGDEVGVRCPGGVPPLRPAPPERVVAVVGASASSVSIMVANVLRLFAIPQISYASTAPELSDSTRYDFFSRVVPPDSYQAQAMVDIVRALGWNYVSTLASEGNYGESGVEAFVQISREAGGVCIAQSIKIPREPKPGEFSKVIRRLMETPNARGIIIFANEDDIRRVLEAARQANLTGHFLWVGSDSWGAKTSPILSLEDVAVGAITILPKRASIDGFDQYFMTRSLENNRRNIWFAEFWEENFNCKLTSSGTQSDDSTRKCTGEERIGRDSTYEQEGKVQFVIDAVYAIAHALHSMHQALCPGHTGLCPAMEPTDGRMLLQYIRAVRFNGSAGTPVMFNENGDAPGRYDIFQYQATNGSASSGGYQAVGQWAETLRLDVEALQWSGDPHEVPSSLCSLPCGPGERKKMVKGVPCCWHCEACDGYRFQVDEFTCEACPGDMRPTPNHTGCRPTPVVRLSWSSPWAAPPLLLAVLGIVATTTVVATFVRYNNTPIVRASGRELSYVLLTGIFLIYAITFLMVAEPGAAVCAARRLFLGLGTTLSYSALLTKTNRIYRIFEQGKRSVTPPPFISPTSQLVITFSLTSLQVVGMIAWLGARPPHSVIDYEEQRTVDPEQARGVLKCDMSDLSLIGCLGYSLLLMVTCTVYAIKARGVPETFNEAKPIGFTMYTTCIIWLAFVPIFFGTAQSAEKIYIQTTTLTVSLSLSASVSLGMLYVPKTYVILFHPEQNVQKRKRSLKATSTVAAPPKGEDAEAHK
< 5.00

----------
- experimental target: Glutamate receptor ionotropic, NMDA 2D (Rattus norvegicus, UniProt Q62645)
- Sequence (Q62645 whole entry): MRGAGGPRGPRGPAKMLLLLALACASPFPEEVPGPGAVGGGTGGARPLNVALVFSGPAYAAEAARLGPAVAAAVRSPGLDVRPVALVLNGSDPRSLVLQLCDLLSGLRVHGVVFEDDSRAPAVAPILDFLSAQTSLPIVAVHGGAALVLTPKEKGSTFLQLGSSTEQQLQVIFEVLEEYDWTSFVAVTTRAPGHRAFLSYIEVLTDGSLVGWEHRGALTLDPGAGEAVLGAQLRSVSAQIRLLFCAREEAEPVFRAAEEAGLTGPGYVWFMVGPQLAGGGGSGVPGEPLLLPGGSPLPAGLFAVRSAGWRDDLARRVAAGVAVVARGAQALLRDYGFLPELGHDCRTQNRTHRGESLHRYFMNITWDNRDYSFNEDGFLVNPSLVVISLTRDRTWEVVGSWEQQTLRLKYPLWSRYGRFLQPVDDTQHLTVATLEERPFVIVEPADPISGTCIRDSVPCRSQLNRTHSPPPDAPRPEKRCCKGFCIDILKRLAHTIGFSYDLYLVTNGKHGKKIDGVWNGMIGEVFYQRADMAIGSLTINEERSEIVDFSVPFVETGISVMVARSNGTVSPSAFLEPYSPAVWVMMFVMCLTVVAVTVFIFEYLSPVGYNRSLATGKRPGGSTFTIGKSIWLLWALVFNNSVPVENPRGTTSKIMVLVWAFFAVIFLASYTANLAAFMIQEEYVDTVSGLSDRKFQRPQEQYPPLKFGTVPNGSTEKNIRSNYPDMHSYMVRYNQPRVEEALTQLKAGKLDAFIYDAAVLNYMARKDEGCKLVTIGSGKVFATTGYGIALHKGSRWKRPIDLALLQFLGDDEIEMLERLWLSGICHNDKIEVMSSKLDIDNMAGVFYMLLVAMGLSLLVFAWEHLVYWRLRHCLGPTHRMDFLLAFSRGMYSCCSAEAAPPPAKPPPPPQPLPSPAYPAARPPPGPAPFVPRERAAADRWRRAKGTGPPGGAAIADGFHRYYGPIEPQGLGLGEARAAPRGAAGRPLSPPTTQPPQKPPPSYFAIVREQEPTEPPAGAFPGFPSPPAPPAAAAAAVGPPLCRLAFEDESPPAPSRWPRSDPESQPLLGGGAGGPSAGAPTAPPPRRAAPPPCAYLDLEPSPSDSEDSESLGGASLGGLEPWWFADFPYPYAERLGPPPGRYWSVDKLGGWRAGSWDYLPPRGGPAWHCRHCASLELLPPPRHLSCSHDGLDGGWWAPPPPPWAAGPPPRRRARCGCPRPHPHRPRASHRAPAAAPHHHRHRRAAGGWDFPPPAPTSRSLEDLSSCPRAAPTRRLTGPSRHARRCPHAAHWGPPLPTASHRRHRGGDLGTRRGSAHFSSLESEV
measure: pIC50
The quantity pIC50 is defined as the negative base-10 logarithm of the molar concentration.

Give the reported pIC50 for this compound. CC[C@H]1C[C@@H]2C[C@H]3c4[nH]c5ccc(OC)cc5c4CCN(C2)[C@@H]13
5.49

----------
- experimental target: Delta-type opioid receptor (Homo sapiens)
- Sequence (P41143 whole entry): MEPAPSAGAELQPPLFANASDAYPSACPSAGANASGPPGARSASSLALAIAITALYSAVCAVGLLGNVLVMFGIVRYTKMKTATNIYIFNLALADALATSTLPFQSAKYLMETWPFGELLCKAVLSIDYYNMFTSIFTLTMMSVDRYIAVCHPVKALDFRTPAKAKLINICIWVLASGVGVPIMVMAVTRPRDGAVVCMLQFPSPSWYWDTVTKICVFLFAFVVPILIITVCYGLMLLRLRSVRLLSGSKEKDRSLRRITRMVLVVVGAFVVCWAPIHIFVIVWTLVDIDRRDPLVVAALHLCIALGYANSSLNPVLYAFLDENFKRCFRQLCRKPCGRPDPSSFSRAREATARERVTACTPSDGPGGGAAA
- measurement description: Ray2010 Assay 74
pKi: −log10 of the molar value.
measure: pKi

Fill in reported pKi for this entry: CC[C@H]1C[C@@H]2C[C@H]3c4[nH]c5ccc(OC)cc5c4CCN(C2)[C@@H]13
< 5.00

Report measured pKi; entry is CCc1cc(OC)c(CCN)cc1OC
< 5.00

Supply reported pKi belonging to this compound: NCCc1c2c(c(Br)c3c1OCC3)OCC2
< 5.00

Using known records, supply pKi for COc1cc(CC(C)N)c(OC)cc1C (centres undefined)
< 5.00

Note down pKi recorded for COc1ccc2[nH]cc(CCN(C)C(C)C)c2c1
< 5.00

Provide only the value of recorded pKi for CN(C)CCc1c[nH]c2cc(F)ccc12
< 5.00

Note down pKi recorded for CCSc1cc(OC)c(CCN)cc1OC
< 5.00

Quote pKi reported for CCc1cc(OC)c(CC(C)N)cc1OC (centres undefined) please.
< 5.00

Look up and state reported pKi for COc1cc(CC(C)N)cc(OC)c1OC (centres undefined)
< 5.00

Please give measured pKi of the following entry: COc1cc(CCN)c(OC)cc1Br
< 5.00

Kindly indicate its recorded pKi. Item: CCc1[nH]c2ccc(OC)cc2c1CCN(C)C
< 5.00

Give the value of pKi reported for the following: CN(C)CCc1c[nH]c2cccc(O)c12 [4-hydroxy-N,N-dimethyltryptamine]
< 5.00

Determine from records and report pKi for C[C@@H]1C[C@@H](C)N1C(=O)C1C=C2c3cccc4[nH]cc(c34)C[C@H]2N(C)C1 (some centres undefined)
< 5.00

Find the measured pKi of CCSc1cc(OC)c(CC(C)N)cc1OC (centres undefined) and report it.
< 5.00

Answer with the recorded pKi for the compound listed here: CCCN(CCC)CCc1c[nH]c2ccccc12
< 5.00

Quickly give me recorded pKi for COc1ccc2[nH]c(C)c(CCN(C)C)c2c1
< 5.00

Quick one: give measured pKi for COc1ccc2[nH]cc(CCN(C(C)C)C(C)C)c2c1
< 5.00

Note down pKi recorded for CCN(CC)C(=O)[C@@H]1C=C2c3cccc4[nH]cc(c34)C[C@H]2N(C)C1 [[N-methyl-3H]LSD]
< 5.00

Supply reported pKi belonging to this compound: COc1cc(CC(C)N)c(OC)cc1Br (centres undefined)
< 5.00

Look up and state reported pKi for CCOc1cc(OC)c(CC(C)N)cc1OC (centres undefined)
< 5.00

Respond only with pKi recorded for CCSc1cc(OC)c(CC(N)CC)cc1OC (centres undefined)
< 5.00

Provide one value: measured pKi of CC(C)N(CCc1c[nH]c2ccccc12)C(C)C
< 5.00

Hello, please tell me recorded pKi for this one: C[C@@H]1C[C@H](C)N1C(=O)C1C=C2c3cccc4[nH]cc(c34)C[C@H]2N(C)C1 (stereo partly drawn) [cis-2a]
< 5.00

Tell me measured pKi for COc1cc(CCN)cc(OC)c1OC please.
< 5.00
